# TARGET_OR_TEST_SYSTEM: Recombinant human cathepsin A (Homo sapiens, UniProt P10619)
# Construct: Recombinant human cathepsin A (residues 29-480, with a C-terminal 10-His tag); 10-His (C); purchased R&D Systems 1049-SE
# Sequence (P10619 29-312 limits assumed): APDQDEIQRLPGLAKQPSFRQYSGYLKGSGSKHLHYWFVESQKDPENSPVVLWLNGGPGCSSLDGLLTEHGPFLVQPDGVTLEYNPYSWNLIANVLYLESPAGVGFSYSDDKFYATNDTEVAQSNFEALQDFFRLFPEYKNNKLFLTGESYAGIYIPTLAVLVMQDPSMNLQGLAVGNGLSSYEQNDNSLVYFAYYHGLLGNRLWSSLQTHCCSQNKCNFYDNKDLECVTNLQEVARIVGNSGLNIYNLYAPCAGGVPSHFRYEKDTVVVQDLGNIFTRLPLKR
# Sequence (P10619 327-480 limits assumed): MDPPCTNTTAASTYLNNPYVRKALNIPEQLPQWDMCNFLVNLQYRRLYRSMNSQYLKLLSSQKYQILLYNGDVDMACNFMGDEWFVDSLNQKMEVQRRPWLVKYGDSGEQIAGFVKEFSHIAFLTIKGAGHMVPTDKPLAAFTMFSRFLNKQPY
# EXPERIMENTAL_DETAILS: Cathepsin A inhibitory activity
# Format: biochemical
# CONDITION_CONTEXT: read-out: Activity (2): Cathepsin A inhibitory activity, IC50 class
# Excerpt: a) Cathepsin A Inhibitory Activity Recombinant human cathepsin A (residues 29-480, with a C-terminal 10-His tag; R&D Systems, #1049-SE) was proteolytically activated with recombinant human cathepsin L (R&D Systems, #952-CY). […] Uncleaved substrate and product were then separated by a microfluidic capillary electrophoresis on a LabChip® 3000 Drug Discovery System (12-Sipper-Chip; Caliper Life Sciences) and quantified by determination of the respective peak areas. […]
PROPERTY_MEASURED: IC50

[[record]]
compound = "O=C(O)CC(NC(=O)c1cc(O)n(-c2cccc(F)c2)n1)c1cccc(C(F)(F)F)c1Cl (stereo not shown)"
property_measured = "IC50"
meas_value = "100 to 1000 nM"

[[record]]
compound = "O=C(O)CC(NC(=O)c1cc(O)n(-c2cccc(F)c2)n1)c1cccc(Cl)c1Cl (stereo not shown)"
property_measured = "IC50"
meas_value = "< 100 nM"

[[record]]
compound = "O=C(O)CC(NC(=O)c1cc(O)n(-c2ccccc2F)n1)c1cccc(Cl)c1 (stereo not shown)"
property_measured = "IC50"
meas_value = "100 to 1000 nM"

[[record]]
compound = "Cc1ccccc1[C@H](CC(=O)O)NC(=O)c1cc(OCC(C)(O)c2ccccc2)n(-c2ccccc2F)n1 (stereo partly shown)"
property_measured = "IC50"
meas_value = "< 100 nM"

[[record]]
compound = "O=C(O)CC(NC(=O)c1cc(O)n(-c2ccc(Cl)cc2)n1)c1ccc(Cl)cc1F (stereo not shown)"
property_measured = "IC50"
meas_value = "1000 to 30000 nM"

[[record]]
compound = "O=C(O)C[C@H](NC(=O)c1cc(O)n(-c2ccccc2F)n1)c1ccccc1C(F)(F)F"
property_measured = "IC50"
meas_value = "100 to 1000 nM"

[[record]]
compound = "CCCC(CC(=O)O)NC(=O)c1cc(O)n(-c2ccccc2)n1 (stereo not shown)"
property_measured = "IC50"
meas_value = "1000 to 30000 nM"

[[record]]
compound = "Cc1ccccc1[C@H](CC(=O)O)NC(=O)c1cc(O)n(-c2ccccc2Cl)n1"
property_measured = "IC50"
meas_value = "< 100 nM"

[[record]]
compound = "O=C(O)CC(NC(=O)c1cc(O)n(-c2ccc(F)c(Cl)c2)n1)c1ccc(F)cc1 (stereo not shown)"
property_measured = "IC50"
meas_value = "1000 to 30000 nM"

[[record]]
compound = "CC(C)[C@@](C)(O)COc1cc(C(=O)NC2(CC(=O)O)CCCC2)nn1-c1ccccc1F"
property_measured = "IC50"
meas_value = "100 to 1000 nM"

[[record]]
compound = "O=C(O)CC(NC(=O)c1cc(O)n(-c2ccc(F)cc2)n1)c1cccc(C(F)(F)F)c1F (stereo not shown)"
property_measured = "IC50"
meas_value = "100 to 1000 nM"

[[record]]
compound = "CC(C)(C)Oc1ccc(C(CC(=O)O)NC(=O)c2cc(O)n(-c3ccccc3)n2)cc1 (stereo not shown)"
property_measured = "IC50"
meas_value = "1000 to 30000 nM"

[[record]]
compound = "O=C(O)CC(NC(=O)c1cc(O)n(-c2ccc(F)cc2F)n1)c1cccc(Cl)c1 (stereo not shown)"
property_measured = "IC50"
meas_value = "100 to 1000 nM"

[[record]]
compound = "O=C(O)C[C@H](NC(=O)c1cc(O)n(-c2ccc(Cl)cc2)n1)c1cccnc1"
property_measured = "IC50"
meas_value = "1000 to 30000 nM"

[[record]]
compound = "O=C(O)CC(NC(=O)c1cc(O)n(-c2ccccc2Cl)n1)c1ccc(-n2ccnc2)cc1 (stereo not shown)"
property_measured = "IC50"
meas_value = "1000 to 30000 nM"

[[record]]
compound = "O=C(O)CC(NC(=O)c1cc(O)n(-c2ccc(Cl)cc2)n1)c1cccc(Cl)c1Cl (stereo not shown)"
property_measured = "IC50"
meas_value = "100 to 1000 nM"

[[record]]
compound = "COc1ccc(Cl)cc1C(CC(=O)O)NC(=O)c1cc(O)n(-c2cccc(F)c2)n1 (stereo not shown)"
property_measured = "IC50"
meas_value = "100 to 1000 nM"

[[record]]
compound = "O=C(O)C[C@H](NC(=O)c1cc(O)n(-c2ccccc2)n1)c1ccccc1F"
property_measured = "IC50"
meas_value = "100 to 1000 nM"

[[record]]
compound = "Cc1ccccc1C(CC(=O)O)NC(=O)c1cc(O)n(-c2ccc(Cl)cc2)n1 (stereo not shown)"
property_measured = "IC50"
meas_value = "100 to 1000 nM"

[[record]]
compound = "Cc1ccc(C)c(-n2nc(C(=O)NC(CC(=O)O)c3cccc(OC(C)(C)C)c3)cc2O)c1 (stereo not shown)"
property_measured = "IC50"
meas_value = "1000 to 30000 nM"

[[record]]
compound = "Cc1ccc([C@H](CC(=O)O)NC(=O)c2cc(OC[C@@H](O)C(C)(C)C)n(-c3ccccc3F)n2)cc1"
property_measured = "IC50"
meas_value = "< 100 nM"

[[record]]
compound = "Cc1ccccc1C(CC(=O)O)NC(=O)c1cc(O)n(-c2ccccc2)n1 (stereo not shown)"
property_measured = "IC50"
meas_value = "100 to 1000 nM"

[[record]]
compound = "O=C(O)CC(NC(=O)c1cc(O)n(-c2ccc(F)cc2F)n1)c1ccc(-c2cccc(F)c2)cc1 (stereo not shown)"
property_measured = "IC50"
meas_value = "100 to 1000 nM"

[[record]]
compound = "COc1ccc(C(CC(=O)O)NC(=O)c2cc(O)n(-c3ccc(F)cc3)n2)c(Cl)c1 (stereo not shown)"
property_measured = "IC50"
meas_value = "100 to 1000 nM"

[[record]]
compound = "COc1cccc(C(CC(=O)O)NC(=O)c2cc(O)n(-c3cc(C)ccc3C)n2)c1 (stereo not shown)"
property_measured = "IC50"
meas_value = "1000 to 30000 nM"

[[record]]
compound = "O=C(O)CC(NC(=O)c1cc(O)n(-c2ccccc2Cl)n1)c1cccc(Cl)c1 (stereo not shown)"
property_measured = "IC50"
meas_value = "100 to 1000 nM"

[[record]]
compound = "O=C(O)CC(NC(=O)c1cc(O)n(-c2ccc(F)cc2)n1)c1ccc(-c2cccc(F)c2)cc1 (stereo not shown)"
property_measured = "IC50"
meas_value = "100 to 1000 nM"

[[record]]
compound = "Cc1ccc(C)c(C(CC(=O)O)NC(=O)c2cc(O)n(-c3ccc(F)cc3)n2)c1 (stereo not shown)"
property_measured = "IC50"
meas_value = "1000 to 30000 nM"


----------
Each item that follows carries a reported IC50.
# TARGET_OR_TEST_SYSTEM: Recombinant human cathepsin A (Homo sapiens, UniProt P10619)
# Construct: Recombinant human cathepsin A (residues 29-480, with a C-terminal 10-His tag); 10-His (C); purchased R&D Systems 1049-SE
# EXPERIMENTAL_DETAILS: Cathepsin A inhibitory activity
# Type: biochemical
# CONDITION_CONTEXT: recombinant human cathepsin A; read-out: Activity (2): Cathepsin A inhibitory activity, IC50 class
PROPERTY_MEASURED: IC50

[[record]]
molecule = "O=C(O)CC(NC(=O)c1cc(O)n(-c2ccccc2Cl)n1)c1ccc(N2CCOCC2)cc1 (stereo not drawn) [Example 505]"
property_measured = "IC50"
meas_value = "1000 to 30000 nM"

[[record]]
molecule = "COc1cccc(F)c1C(CC(=O)O)NC(=O)c1cc(O)n(-c2ccc(F)cc2F)n1 (stereo not drawn) [Example 449]"
property_measured = "IC50"
meas_value = "100 to 1000 nM"

[[record]]
molecule = "Cc1ccc(F)cc1C(CC(=O)O)NC(=O)c1cc(O)n(-c2cccc(F)c2)n1 (stereo not drawn) [Example 487]"
property_measured = "IC50"
meas_value = "100 to 1000 nM"

[[record]]
molecule = "COc1ccc(F)cc1C(CC(=O)O)NC(=O)c1cc(O)n(-c2ccc(F)cc2F)n1 (stereo not drawn) [Example 453]"
property_measured = "IC50"
meas_value = "100 to 1000 nM"

[[record]]
molecule = "COc1cc(C(=O)N[C@@H](CC(=O)N[C@H](C)C(C)C)c2ccccc2C)nn1-c1ccccc1F [Example 939]"
property_measured = "IC50"
meas_value = "< 100 nM"

[[record]]
molecule = "COc1ccc(F)cc1C(CC(=O)O)NC(=O)c1cc(O)n(-c2ccccc2)n1 (stereo not drawn) [Example 498]"
property_measured = "IC50"
meas_value = "100 to 1000 nM"

[[record]]
molecule = "COc1ccccc1[C@@H](NC(=O)c1cc(O)n(-c2cccc(Cl)c2)n1)[C@@H](O)C(=O)O [Example 416]"
property_measured = "IC50"
meas_value = "1000 to 30000 nM"

[[record]]
molecule = "COc1ccc(C(CC(=O)O)NC(=O)c2cc(O)n(-c3ccc(Cl)cc3)n2)c(Cl)c1 (stereo not drawn) [Example 424]"
property_measured = "IC50"
meas_value = "100 to 1000 nM"

[[record]]
molecule = "Cc1c(F)cccc1C(CC(=O)O)NC(=O)c1cc(O)n(-c2ccccc2Cl)n1 (stereo not drawn) [Example 455]"
property_measured = "IC50"
meas_value = "100 to 1000 nM"

[[record]]
molecule = "O=C(O)CC(NC(=O)c1cc(O)n(-c2ccnc(Cl)c2)n1)c1ccc(-c2ccccc2)cc1 (stereo not drawn) [Example 439]"
property_measured = "IC50"
meas_value = "100 to 1000 nM"

[[record]]
molecule = "COc1cc(C(=O)N[C@@H](CC(=O)N[C@@H](CO)C(C)C)c2ccccc2C)nn1-c1ccccc1F [Example 927]"
property_measured = "IC50"
meas_value = "100 to 1000 nM"

[[record]]
molecule = "COc1cc(C(=O)N[C@@H](CC(=O)NC2CCNC2=O)c2ccccc2C)nn1-c1ccccc1F (stereo partly drawn) [Example 931]"
property_measured = "IC50"
meas_value = "1000 to 30000 nM"

[[record]]
molecule = "O=C(O)C[C@H](NC(=O)c1cc(O)n(-c2cccc(F)c2)n1)c1ccccc1Cl [Example 522]"
property_measured = "IC50"
meas_value = "100 to 1000 nM"

[[record]]
molecule = "O=C(O)C[C@H](NC(=O)c1cc(O)n(-c2ccccc2F)n1)c1ccccc1Cl [Example 519]"
property_measured = "IC50"
meas_value = "100 to 1000 nM"

[[record]]
molecule = "COc1cc(C(=O)N[C@@H](CC(=O)Nc2ccn(C)n2)c2ccccc2C)nn1-c1ccccc1F [Example 930]"
property_measured = "IC50"
meas_value = "100 to 1000 nM"

[[record]]
molecule = "COc1cc(C(=O)N[C@@H](CC(=O)NC2CC2)c2ccccc2C)nn1-c1ccccc1F [Example 933]"
property_measured = "IC50"
meas_value = "< 100 nM"

[[record]]
molecule = "O=C(O)C[C@H](NC(=O)c1cc(O)n(-c2cccc(Cl)c2)n1)c1ccccc1Cl [Example 514]"
property_measured = "IC50"
meas_value = "100 to 1000 nM"

[[record]]
molecule = "O=C(O)CC(NC(=O)c1cc(O)n(-c2ccccc2)n1)c1cc(F)ccc1Cl (stereo not drawn) [Example 495]"
property_measured = "IC50"
meas_value = "100 to 1000 nM"

[[record]]
molecule = "O=C(O)CC(NC(=O)c1cc(O)n(-c2ccccc2F)n1)c1ccc(N2CCOCC2)cc1 (stereo not drawn) [Example 518]"
property_measured = "IC50"
meas_value = "1000 to 30000 nM"

[[record]]
molecule = "O=C(O)CC(NC(=O)c1cc(O)n(-c2ccc(Cl)cc2)n1)c1cc(F)ccc1C(F)(F)F (stereo not drawn) [Example 473]"
property_measured = "IC50"
meas_value = "1000 to 30000 nM"

[[record]]
molecule = "COc1cc(C(=O)N[C@@H](CC(=O)NCC#N)c2ccccc2C)nn1-c1ccccc1F [Example 926]"
property_measured = "IC50"
meas_value = "1000 to 30000 nM"

[[record]]
molecule = "O=C(O)CC(NC(=O)c1cc(O)n(-c2cccc(F)c2)n1)c1cc(F)ccc1Cl (stereo not drawn) [Example 483]"
property_measured = "IC50"
meas_value = "100 to 1000 nM"

[[record]]
molecule = "Cc1c(F)cccc1C(CC(=O)O)NC(=O)c1cc(O)n(-c2ccccc2F)n1 (stereo not drawn) [Example 516]"
property_measured = "IC50"
meas_value = "100 to 1000 nM"

[[record]]
molecule = "O=C(O)CC(NC(=O)c1cc(O)n(-c2ccc(F)cc2F)n1)c1cccc2c1OC(F)(F)O2 (stereo not drawn) [Example 450]"
property_measured = "IC50"
meas_value = "100 to 1000 nM"

